Taken from PubChem BioAssay (NCI).

- Tested on: T-47D breast
- Protocol Text: NCI-60 one-dose screen, 48 h (100 = growth as untreated, 0 = no growth, -100 = all killed)
- Experimental Conditions: 10 µM unless noted
The panel holds about 83,000 compounds, 20% with a hit somewhere; the sample as a whole holds those more often.
Observable: growth (%)
Give bare numbers, in %.

Item O=C(Nc1ccccc1)Nc1cccc(Oc2nnc(Cl)c3ccccc23)c1 : provide growth
-18

Item O=C1NC(=Nc2ccc(Cl)cc2)S/C1=C\c1cn(-c2ccccc2)nc1-c1ccccc1 : provide growth
47.4

Item CCN(CCNc1ccc(C)c2sc3ccccc3c(=O)c12)CC(C)(C)O : provide growth
80.7

Item CN(C)CCCn1c(=O)c2ccccc2c2ccccc21 : provide growth
87.9

Item c1cc2ccc3cc2cc1CNCCOCCNCc1ccc2ccc(cc2c1)CNCCOCCNC3 : provide growth
-23.8

***
Item C[n+]1cccc(CC(=O)NO)c1 : provide growth
79
